- measured_target: HLA-A*24:02
- procedure_summary: IEDB peptide-MHC binding, purified MHC/competitive/radioactivity; filed as Kd, often an IC50 or EC50 that approximates it; bounds were set here for any values at or beyond the usual limits of such assays
- experimental_context: source organism: Dengue virus 3 Martinique/1243/1999
Listed next: entries and their corresponding Kd.

- sequence_chain: "SWALCEALTL"
  Kd, µM: 0.5
- sequence_chain: "GVPPLPLFIF"
  Kd, µM: 0.494

====

- measured_target: HLA-A*03:01
- procedure_summary: IEDB peptide-MHC binding, purified MHC/direct/fluorescence; filed as Kd, often an IC50 or EC50 that approximates it; bounds were set here for any values at or beyond the usual limits of such assays
- experimental_context: source organism: SARS-CoV1
Listing: Kd of selected sequences
reported_property: Kd

- sequence_chain: "RVDFCGKGY"
  result: "1.89 µM"
- sequence_chain: "LTDDMIAAY"
  result: "19.3 µM"
